Just for reference, patent US20250120981A1 is where these values come from.

Assay explanation: Pharmacokinetics in humans, MRTX1133 formulation, oral, single and multiple doses
Format: in vivo
Applied conditions: human, plasma, po, 200 mg, single oral dose of 200 mg, fasted; 24 h; mean of subjects; read-out: Plasma concentration, Mean

# Molecule, concentration at 24 h
rows = [
    ("C#Cc1c(F)ccc2cc(O)cc(-c3ncc4c(N5C[C@H]6CC[C@@H](C5)N6)nc(OC[C@@]56CCCN5C[C@H](F)C6)nc4c3F)c12 [MRTX1133]", "0.521 ng/mL"),
]

###

Assay explanation: Pharmacokinetics in humans, MRTX1133 formulation, oral, single and multiple doses
Assay type: in vivo
Applied conditions: human, plasma, po, 400 mg, single oral dose of 400 mg with a low-fat meal; 6 h; mean of subjects; read-out: Plasma concentration, Mean

# Cpd smiles, concentration at 6 h [ng/mL]
rows = [
    ("C#Cc1c(F)ccc2cc(O)cc(-c3ncc4c(N5C[C@H]6CC[C@@H](C5)N6)nc(OC[C@@]56CCCN5C[C@H](F)C6)nc4c3F)c12", 43.6),
]

###

Assay explanation: Pharmacokinetics in humans, MRTX1133 formulation, oral, single and multiple doses
Type: in vivo
Applied conditions: human, plasma, po, 800 mg, single oral dose of 800 mg, fasted; Geo Mean of subjects; read-out: AUC0-last

# Cpd smiles, AUC(0-t) (ng·h/mL)
records = [
    ("C#Cc1c(F)ccc2cc(O)cc(-c3ncc4c(N5C[C@H]6CC[C@@H](C5)N6)nc(OC[C@@]56CCCN5C[C@H](F)C6)nc4c3F)c12", 463),
]

###

Assay explanation: Pharmacokinetics in humans, MRTX1133 formulation, oral, single and multiple doses
Type: in vivo
Applied conditions: human, plasma, po, 400 mg, single oral dose of 400 mg with a low-fat meal; 48 h; individual subjects; read-out: Plasma concentration

# Molecule, concentration at 48 h (ng/mL)
data = [
    ("C#Cc1c(F)ccc2cc(O)cc(-c3ncc4c(N5C[C@H]6CC[C@@H](C5)N6)nc(OC[C@@]56CCCN5C[C@H](F)C6)nc4c3F)c12 [MRTX1133]", 3.13),
]

###

Assay explanation: Pharmacokinetics in humans, MRTX1133 formulation, oral, single and multiple doses
Type: in vivo
Applied conditions: human, plasma, po, 800 mg, single oral dose of 800 mg, fasted; Geo Mean of subjects; read-out: AUC0-inf

# Compound, AUC0-inf
measured = [
    ("C#Cc1c(F)ccc2cc(O)cc(-c3ncc4c(N5C[C@H]6CC[C@@H](C5)N6)nc(OC[C@@]56CCCN5C[C@H](F)C6)nc4c3F)c12 [MRTX1133]", "543 ng·h/mL"),
]

###

Assay explanation: Pharmacokinetics in humans, MRTX1133 formulation, oral, single and multiple doses
Format: in vivo
Applied conditions: human, plasma, po, 400 mg, multiple oral doses of 400 mg BID, fasted; geometric mean of subjects; read-out: Cmax, Geo Mean
Experimental: The pharmacokinetics [PK] of the MRTX1133 formulation after oral administration has been evaluated in 25 subjects across 3 escalating dose frequencies under fasting conditions (200 mg twice daily [BID], 400 mg BID, and 800 mg BID), as well as evaluation of 400 mg BID when administered with a low-fat meal (i.e., under fed conditions). The mean (+standard deviation) single-dose and multiple-dose pharmacokinetic profiles of the evaluated doses are presented in FIG. 9 and FIG. 10, respectively. […]

# Cpd smiles, U, Cmax
data = [
    ("C#Cc1c(F)ccc2cc(O)cc(-c3ncc4c(N5C[C@H]6CC[C@@H](C5)N6)nc(OC[C@@]56CCCN5C[C@H](F)C6)nc4c3F)c12", "ng/mL", 111),
]

###

Assay explanation: Pharmacokinetics in humans, MRTX1133 formulation, oral, single and multiple doses
Assay type: in vivo
Applied conditions: human, plasma, po, 400 mg, multiple oral doses of 400 mg BID with a low-fat meal; 6 h; mean of subjects; read-out: Plasma concentration, Mean
Experimental: The pharmacokinetics [PK] of the MRTX1133 formulation after oral administration has been evaluated in 25 subjects across 3 escalating dose frequencies under fasting conditions (200 mg twice daily [BID], 400 mg BID, and 800 mg BID), as well as evaluation of 400 mg BID when administered with a low-fat meal (i.e., under fed conditions). The mean (+standard deviation) single-dose and multiple-dose pharmacokinetic profiles of the evaluated doses are presented in FIG. 9 and FIG. 10, respectively. […]
Measurement label: concentration at 6 h (ng/mL)

# Cpd smiles, U, Obs value
data = [
    ("C#Cc1c(F)ccc2cc(O)cc(-c3ncc4c(N5C[C@H]6CC[C@@H](C5)N6)nc(OC[C@@]56CCCN5C[C@H](F)C6)nc4c3F)c12", "ng/mL", 30),
]

###

Assay explanation: Pharmacokinetics in humans, MRTX1133 formulation, oral, single and multiple doses
Assay type: in vivo
Applied conditions: human, plasma, po, 800 mg, single oral dose of 800 mg, fasted; 4 h; mean of subjects; read-out: Plasma concentration, Mean
Description: The pharmacokinetics [PK] of the MRTX1133 formulation after oral administration has been evaluated in 25 subjects across 3 escalating dose frequencies under fasting conditions (200 mg twice daily [BID], 400 mg BID, and 800 mg BID), as well as evaluation of 400 mg BID when administered with a low-fat meal (i.e., under fed conditions). The mean (+standard deviation) single-dose and multiple-dose pharmacokinetic profiles of the evaluated doses are presented in FIG. 9 and FIG. 10, respectively. […]

# Cpd smiles, concentration at 4 h [ng/mL]
rows = [
    ("C#Cc1c(F)ccc2cc(O)cc(-c3ncc4c(N5C[C@H]6CC[C@@H](C5)N6)nc(OC[C@@]56CCCN5C[C@H](F)C6)nc4c3F)c12", 67.6),
]

###

Assay explanation: Pharmacokinetics in humans, MRTX1133 formulation, oral, single and multiple doses
Format: in vivo
Applied conditions: human, plasma, po, 200 mg, single oral dose of 200 mg, fasted; 4 h; mean of subjects; read-out: Plasma concentration, Mean
Measurement label: concentration at 4 h (ng/mL)

# Molecule, Obs value
measured = [
    ("C#Cc1c(F)ccc2cc(O)cc(-c3ncc4c(N5C[C@H]6CC[C@@H](C5)N6)nc(OC[C@@]56CCCN5C[C@H](F)C6)nc4c3F)c12 [MRTX1133]", 30.4),
]

###

Assay explanation: Pharmacokinetics in humans, MRTX1133 formulation, oral, single and multiple doses
Format: in vivo
Applied conditions: human, plasma, po, 200 mg, single oral dose of 200 mg, fasted; geometric mean of subjects; read-out: AUC0-12, Geo Mean

# Cpd smiles, U, AUC(0-t)
data = [
    ("C#Cc1c(F)ccc2cc(O)cc(-c3ncc4c(N5C[C@H]6CC[C@@H](C5)N6)nc(OC[C@@]56CCCN5C[C@H](F)C6)nc4c3F)c12", "ng·h/mL", 148),
]

###

Assay explanation: Pharmacokinetics in humans, MRTX1133 formulation, oral, single and multiple doses
Format: in vivo
Applied conditions: human, plasma, po, 400 mg, single oral dose of 400 mg, fasted; 48 h; individual subjects; read-out: Plasma concentration
Measurement label: concentration at 48 h (ng/mL)

# Cpd smiles, U, Obs value
rows = [
    ("C#Cc1c(F)ccc2cc(O)cc(-c3ncc4c(N5C[C@H]6CC[C@@H](C5)N6)nc(OC[C@@]56CCCN5C[C@H](F)C6)nc4c3F)c12", "ng/mL", 1.46),
]

###

Assay explanation: Pharmacokinetics in humans, MRTX1133 formulation, oral, single and multiple doses
Assay type: in vivo
Applied conditions: human, plasma, po, 400 mg, single oral dose of 400 mg with a low-fat meal; geometric mean of subjects; read-out: AUC0-inf, Geo Mean

# Cpd smiles, AUC0-inf
data = [
    ("C#Cc1c(F)ccc2cc(O)cc(-c3ncc4c(N5C[C@H]6CC[C@@H](C5)N6)nc(OC[C@@]56CCCN5C[C@H](F)C6)nc4c3F)c12", "300 ng·h/mL"),
]

###

Assay explanation: Pharmacokinetics in humans, MRTX1133 formulation, oral, single and multiple doses
Assay type: in vivo
Applied conditions: human, plasma, po, 400 mg, single oral dose of 400 mg with a low-fat meal; 4 h; mean of subjects; read-out: Plasma concentration, Mean
Measurement label: concentration at 4 h (ng/mL)

# Cpd smiles, U, Obs value
measured = [
    ("C#Cc1c(F)ccc2cc(O)cc(-c3ncc4c(N5C[C@H]6CC[C@@H](C5)N6)nc(OC[C@@]56CCCN5C[C@H](F)C6)nc4c3F)c12", "ng/mL", 59.7),
]

###

Assay explanation: Pharmacokinetics in humans, MRTX1133 formulation, oral, single and multiple doses
Format: in vivo
Applied conditions: human, plasma, po, 200 mg, single oral dose of 200 mg, fasted; 1 h; mean of subjects; read-out: Plasma concentration, Mean
Measurement label: concentration at 1 h (ng/mL)

# Compound, Measurement label, U, Obs value
records = [
    ("C#Cc1c(F)ccc2cc(O)cc(-c3ncc4c(N5C[C@H]6CC[C@@H](C5)N6)nc(OC[C@@]56CCCN5C[C@H](F)C6)nc4c3F)c12 [MRTX1133]", "concentration at 1 h", "ng/mL", 44.3),
]
